Test system: Saccharomyces cerevisiae wild-type strain
Format: cell-based
EXPERIMENTAL CONTEXT: 30 μM; wild-type cells, DPM -HIS/-TRP, 0.5 mM CsCl, 24 hours growth, TROPIX kit; ASSAY 2
MEASUREMENT NAME: Exp. 1 (LacZ luminescence), ASSAY 2

>  <COMPOUND>
CCOC(=O)N1CCC(=C2c3ccc(Cl)cc3CCc3cccnc32)CC1 [Loratadine]

>  <MEASUREMENT NAME>
Exp. 1 (LacZ luminescence), ASSAY 2

>  <QUANTITATIVE RESULT>
3553

$$$$
>  <COMPOUND>
CN(C)CCOC(c1ccccc1)c1ccccc1 [Diphenhydramine]

>  <MEASUREMENT NAME>
Exp. 1 (LacZ luminescence), ASSAY 2

>  <QUANTITATIVE RESULT>
3468

$$$$
>  <COMPOUND>
O=C1Cc2cc(CCN3CCN(c4nsc5ccccc45)CC3)c(Cl)cc2N1 [Ziprasidone]

>  <MEASUREMENT NAME>
Exp. 1 (LacZ luminescence), ASSAY 2

>  <QUANTITATIVE RESULT>
62.52

$$$$
>  <COMPOUND>
O=C1NCCN1CCN1CCC(c2cn(-c3ccc(F)cc3)c3ccc(Cl)cc23)CC1 [Sertindole]

>  <MEASUREMENT NAME>
Exp. 1 (LacZ luminescence), ASSAY 2

>  <QUANTITATIVE RESULT>
3992

$$$$
>  <COMPOUND>
O=c1[nH]c2ccccc2n1C1CCN(CCCC(c2ccc(F)cc2)c2ccc(F)cc2)CC1 [Pimozide]

>  <MEASUREMENT NAME>
Exp. 1 (LacZ luminescence), ASSAY 2

>  <QUANTITATIVE RESULT>
905

$$$$
